Data origin: PubChem BioAssay (NCI)

The following compounds are listed with their measured GI50 values.
- System: HL-60(TB) leukemia
- test details: NCI tumour cell line growth inhibition, 48 h

Below, each entry is followed by its recorded GI50 result.
{"compound": "O=C(NC(Cc1ccccc1)C(=O)CCl)OCc1ccccc1 (stereo not given)", "parameter measured": "GI50", "reading": "14300 nM"}
{"compound": "COc1cc(OC)c(/C=C/C(=O)c2c(O)cc(OC)c(C3CCN(C)CC3)c2OC)c(OC)c1", "parameter measured": "GI50", "reading": "2170 nM"}
{"compound": "O=C1Nc2c(ccc(Cl)c2Cl)/C1=C\\c1cc(C(F)(F)F)cc(C(F)(F)F)c1", "parameter measured": "GI50", "reading": "1130 nM"}
{"compound": "COc1cc(-c2ccc(=O)oc2C#Cc2ccccc2)cc(OC)c1OC", "parameter measured": "GI50", "reading": "8560 nM"}

Next compound, please.
Query :: So what's the measured GI50 for this one? COc1ccc2c(c1)C(=O)c1c-2c(OCCN2CCCCC2)nc2ccc(OC)cc12
Result :: 1080 nM

---

- Tested on: NCI-H522 lung
- test details: NCI tumour cell line growth inhibition, 48 h
The following compounds are listed with their measured TGI values.

Below, each entry is followed by its recorded TGI result.
{"compound": "COc1cc(/C=C/C2=NN(c3cccc(S(=O)(=O)O)c3)C3(C2)SCC(=O)N3c2nc3ccccc3s2)cc(OC)c1OC (configuration not stated)", "reading": "38.4 µM"}
{"compound": "CS(=O)(=O)c1ccc(-c2cnc(NCc3ccco3)n3cnnc23)cc1", "reading": "> 100 µM"}

Next compound, please.
Query :: So what's the measured TGI for this one? COc1ccc(N2C(=O)C(=O)C3(CCCCC3)C2=O)c(OC)c1OC
Result :: > 100 µM

---

The following molecules are listed with their measured TGI values.
- System: U251 CNS
- test details: NCI tumour cell line growth inhibition, 48 h
I only need the number, in µM, no unit after it.

Below, each entry is followed by its recorded TGI result.
{"molecule": "CCN(CC)CCNC(=O)C(Cl)=C1C(Cl)=C(Cl)C(Cl)=C1Cl", "TGI (µM)": 10.2}
{"molecule": "COc1ccccc1[C@@H]1CCC2CC[C@@H](c3ccccc3OC)[N+]21Cc1ccccc1 (stereo not given in full)", "TGI (µM)": 11.2}
{"molecule": "Cc1ccnc(NC(c2ccccc2)c2ccc3cccnc3c2O)c1 (stereo not given)", "TGI (µM)": 12.7}

Next molecule, please.
Query :: So what's the measured TGI for this one? [Au+].c1c[n-]cn1.c1ccc([PH+](c2ccccc2)c2ccccc2)cc1
Result :: 26.2

---

- System: CCRF-CEM leukemia
- test details: NCI tumour cell line growth inhibition, 48 h
parameter measured: TGI

{"compound": "O=C1[C@H](O)[C@@H]2CCC[C@@]23CCCN13", "assayed target": "CCRF-CEM leukemia", "TGI": "> 100 µM"}
{"compound": "Clc1ccc(Nc2ncnc3c2sc2ncccc23)c(Cl)c1", "assayed target": "CCRF-CEM leukemia", "TGI": "> 100 µM"}
{"compound": "COc1ccc(Nc2ncccc2C(=O)NCc2cn(Cc3cccc(Oc4ccccc4)c3)nn2)c(OC)c1", "assayed target": "CCRF-CEM leukemia", "TGI": "> 100 µM"}

Query :: So what's the measured TGI for this one? CCOC(=O)CCC(C(=O)OCC)n1nnc2ccc(Nc3c(C)[n+]([O-])c4cc(F)c(OCC)cc4[n+]3[O-])cc21 (stereo not given)
Result :: > 100 µM

Query :: So what's the measured TGI for this one? C1=CC(=NN=P(c2ccccc2)(c2ccccc2)c2ccccc2)C=C1
Result :: > 100 µM

Query :: So what's the measured TGI for this one? CC(=O)N1CCN(CCCCN2c3ccccc3Sc3cc(N=[N+]=[N-])ccc32)CC1
Result :: 33.2 µM

Query :: So what's the measured TGI for this one? Cc1ccnc(NC(c2ccccc2)c2ccc3cccnc3c2O)c1 (stereo not given)
Result :: > 100 µM

Query :: So what's the measured TGI for this one? C/C(CC(=O)Nc1ccc([N+](=O)[O-])cc1)=N\Nc1ccc([N+](=O)[O-])cc1[N+](=O)[O-]
Result :: > 100 µM

Query :: So what's the measured TGI for this one? CC1(C)OC2OC(C(=O)c3ccccc3)C3OC(C)(C)OC3C2O1 (stereo not given)
Result :: > 100 µM

Query :: So what's the measured TGI for this one? Cc1cc(N)c2cc(NC(=O)Nc3ccc4nc(C)cc(N)c4c3)ccc2n1
Result :: > 100 µM

---

The following compounds are listed with their measured TGI values.
- Test system: NCI-H226 lung
- test details: NCI tumour cell line growth inhibition, 48 h

{"compound": "O=C1C(Cl)C(c2ccc([N+](=O)[O-])cc2)N1n1cnc2ccccc2c1=O (stereo not given)", "TGI": "> 100 µM"}

Query :: So what's the measured TGI for this one? CN(C)C=Nc1c2c(nc3ccccc13)CCCC2
Result :: > 100 µM

Query :: So what's the measured TGI for this one? Cn1c(=O)oc2cc(C(=S)N3CCCCC3)ccc21
Result :: > 100 µM

Query :: So what's the measured TGI for this one? CS(=O)(=O)c1ccc(-c2cnc(NCc3ccco3)n3cnnc23)cc1
Result :: > 100 µM

Query :: So what's the measured TGI for this one? CC(=O)N1CCN(CCCCN2c3ccccc3Sc3cc(N=[N+]=[N-])ccc32)CC1
Result :: 35.5 µM

Query :: So what's the measured TGI for this one? O=[N+]([O-])c1cccc([I+]c2ccccc2)c1
Result :: 21.3 µM

---

- Tested on: HCT-15 colon
- test details: NCI tumour cell line growth inhibition, 48 h
parameter measured: TGI

{"compound": "CN(C)CCNC(=O)c1cccc2[nH]c(-c3ccc(Cl)cc3)nc12", "TGI": "19.9 µM"}
{"compound": "Cc1sc2nc3n(c(=O)c2c1C)N=C(c1ccccc1)CS3", "TGI": "> 100 µM"}
{"compound": "Cc1cc2nc(CC(C(F)(F)F)C(F)(F)F)oc2cc1C", "TGI": "26.8 µM"}
{"compound": "CCCCc1c2c(nc3c1CCCC3=O)CCCC2", "TGI": "> 100 µM"}

Query :: So what's the measured TGI for this one? COC(=O)[C@H](C)[C@@H]1CC[C@](C)(CCC2=C(C)CCCC2(C)C)OO1
Result :: > 25 µM

Query :: So what's the measured TGI for this one? COc1ccc2c(c1)CC1N(C)CCC13CCCCC23 (centres undefined)
Result :: > 100 µM

Query :: So what's the measured TGI for this one? COc1ccc(C2NC3=C(CCCC3)N2)cc1
Result :: > 100 µM

Query :: So what's the measured TGI for this one? COc1cc(C2c3cc4c(cc3OC(NNc3ccccc3)C2C)OCO4)cc(OC)c1O (centres undefined)
Result :: 11.9 µM

Query :: So what's the measured TGI for this one? O=C(CSc1nnc(-c2ccc(N=Cc3ccc(Cl)cc3)cc2)o1)Nc1cccc([N+](=O)[O-])c1
Result :: > 100 µM

Query :: So what's the measured TGI for this one? COc1cccc(/C=C2\CCc3ccccc3C2=O)c1
Result :: 49.4 µM

Query :: So what's the measured TGI for this one? Nc1ccn(CCCC(c2ccccc2)P(=O)(O)O)c(=O)n1 (centres undefined)
Result :: > 100 µM

Query :: So what's the measured TGI for this one? COc1cc2oc(-c3ccc(O)cc3)cc(=O)c2c(OC)c1O
Result :: > 100 µM

Query :: So what's the measured TGI for this one? Cc1cc(N)c2cc(NC(=O)Nc3ccc4nc(C)cc(N)c4c3)ccc2n1
Result :: > 100 µM

---

The following compounds are listed with their measured GI50 values.
- Test system: SW-620 colon
- test details: NCI tumour cell line growth inhibition, 48 h

Below, each entry is followed by its recorded GI50 result.
{"compound": "Cc1cc2nc3c4cc([N+](=O)[O-])ccc4n(CCN(C)C)c3nc2cc1C", "parameter measured": "GI50", "reading": "0.301 µM"}
{"compound": "CCCCCCn1c2c(c3c(O)cccc31)C(=O)c1ccccc1-2", "parameter measured": "GI50", "reading": "18.2 µM"}
{"compound": "COC1/C=C/OC2(C)Oc3c(C)c(O)c4c(O)c(c(C=NOC(c5ccccc5)c5ccccc5)c(O)c4c3C2=O)NC(=O)/C(C)=C/C=C/C(C)C(O)C(C)C(O)C(C)C(OC(C)=O)C1C (stereo not given)", "parameter measured": "GI50", "reading": "1.35 µM"}
{"compound": "O=C(c1ccccc1)c1c2n(c3c1cc(O)c1ccccc13)CCN2", "parameter measured": "GI50", "reading": "3.47 µM"}

Next compound, please.
Query :: So what's the measured GI50 for this one? CCOC(=O)Nc1cc(-c2ccc(C)c(NS(C)(=O)=O)c2)nn2c(C)nnc12
Result :: 2.42 µM
